Below, each entry is listed with its recorded EC50.
target: 5-HT2A receptor (Homo sapiens, UniProt P28223); construct: expressed in transfected cells; host or cells: HEK293T; test: Serotonin receptor 5-HT2 functional assay (Gq dissociation BRET or Gq-dependent calcium flux), 5-HT2A; assay type: cell-based
Sequence (P28223 whole entry): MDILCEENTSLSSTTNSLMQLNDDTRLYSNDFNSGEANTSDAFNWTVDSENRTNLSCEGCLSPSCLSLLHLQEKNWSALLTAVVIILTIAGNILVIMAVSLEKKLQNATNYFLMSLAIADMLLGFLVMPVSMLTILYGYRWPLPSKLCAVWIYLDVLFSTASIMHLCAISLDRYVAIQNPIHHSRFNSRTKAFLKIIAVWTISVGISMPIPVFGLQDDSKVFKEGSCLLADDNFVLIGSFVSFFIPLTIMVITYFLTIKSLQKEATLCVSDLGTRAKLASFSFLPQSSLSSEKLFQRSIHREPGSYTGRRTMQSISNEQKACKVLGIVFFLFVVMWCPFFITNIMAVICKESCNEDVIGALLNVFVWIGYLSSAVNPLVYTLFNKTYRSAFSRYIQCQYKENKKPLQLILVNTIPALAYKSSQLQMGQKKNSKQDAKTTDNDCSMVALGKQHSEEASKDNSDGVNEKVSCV
Quantity Kind: EC50 (nM)

Cc1c(F)cc(O)c2c(CCN(C)C)c[nH]c12 [Compound 33] ... 20
COc1cc(F)c(C)c2[nH]cc(CCN(C)C)c12 [Compound 34] ... 16.9
Cc1ccc(OP(=O)(O)O)c2c(CCN(C)C)c[nH]c12 [Compound 24] ... 1150
CCc1ccc(O)c2c(CCN(C)C)c[nH]c12 [Compound 9] ... 154
COc1ccc(C)c2[nH]cc(CCN(C)C)c12 [Compound 26] ... 95
Cc1ccc(O)c2c(CCN(C)C)c[nH]c12 [Compound 1] ... 66
CC(C)c1ccc(O)c2c(CCN(C)C)cn(C)c12 [Compound 11] ... 1160
Cc1ccc(O)c2c(CCN(C)C(C)C)c[nH]c12 [Compound 16] ... 150
CCN(C)CCc1c[nH]c2c(C)ccc(O)c12 [Compound 14] ... 82
Cc1cccc2c(CCN(C)C)c[nH]c12 [7,N,N-TMT] ... 232
Cc1cc(O)c2c(CCN(C)C)c[nH]c2c1 [Compound 37] ... 59
CN(C)CCc1c[nH]c2cc(F)cc(O)c12 [Compound 36] ... 2.9
CC(C)c1ccc(O)c2c(CCN(C)C)c[nH]c12 [Compound 10] ... 1070
CN(C)CCc1c[nH]c2c(C#N)ccc(O)c12 [Compound 64] ... 267
Cc1ccc(O)c2c(CCN(C)C3CC3)c[nH]c12 [Compound 17] ... 12.9

----------
molecular target: 5-HT2B receptor (Homo sapiens, UniProt P41595); construct: expressed in transfected cells; host or cells: HEK293T; experiment: Serotonin receptor 5-HT2 functional assay (Gq dissociation BRET or Gq-dependent calcium flux), 5-HT2B; type: cell-based; details: Table 4; efficacy relative to 4-hydroxytryptamine; at least three replicate trials
Sequence (P41595 whole entry): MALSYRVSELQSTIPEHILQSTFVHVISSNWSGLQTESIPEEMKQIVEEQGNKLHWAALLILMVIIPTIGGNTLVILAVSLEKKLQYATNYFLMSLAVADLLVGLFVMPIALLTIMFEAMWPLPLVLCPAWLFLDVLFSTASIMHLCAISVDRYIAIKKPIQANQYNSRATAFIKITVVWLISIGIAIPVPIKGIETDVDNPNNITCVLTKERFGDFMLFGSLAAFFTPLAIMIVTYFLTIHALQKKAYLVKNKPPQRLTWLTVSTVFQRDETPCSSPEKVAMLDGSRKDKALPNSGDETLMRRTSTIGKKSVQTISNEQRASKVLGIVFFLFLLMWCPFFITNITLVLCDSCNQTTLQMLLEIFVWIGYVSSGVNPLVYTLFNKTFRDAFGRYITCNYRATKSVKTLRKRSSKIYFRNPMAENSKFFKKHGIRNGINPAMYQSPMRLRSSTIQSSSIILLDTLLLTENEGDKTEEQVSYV
Quantity Kind: 5-HT2B BRET Eff %

Cc1ccc(O)c2c(C[C@H]3CCN3C)c[nH]c12 [Compound 77] ... 41%
Cc1ccc(OP(=O)(O)O)c2c(CCN(C)C)c[nH]c12 [Compound 24] ... inactive
CCc1ccc(O)c2c(CCN(C)C)c[nH]c12 [Compound 9] ... inactive
Cc1ccc(O)c2c(CCN(C)C(C)C)c[nH]c12 [Compound 16] ... inactive
Cc1c(F)cc(O)c2c(CCN(C)C)c[nH]c12 [Compound 33] ... inactive

----------
target: 5-HT2A receptor (Homo sapiens, UniProt P28223); construct: expressed in transfected cells; host or cells: HEK293T; assay: Serotonin receptor 5-HT2 functional assay (Gq dissociation BRET or Gq-dependent calcium flux), 5-HT2A; format: cell-based; conditions: Table 4; efficacy relative to 4-hydroxytryptamine; at least three replicate trials
Quantity Kind: 5-HT2A BRET Eff % (%)

Cc1ccc(O)c2c(CCN(C)C)c[nH]c12 ... 72
Cc1ccc(O)c2c(CCN(C)C(C)C)c[nH]c12 ... 77
CN(C)CCc1c[nH]c2cccc(O)c12 [psilocin, reference compound] ... 82
CN(C)CCc1c[nH]c2cc(F)cc(O)c12 ... 92
COc1cc(F)c(C)c2[nH]cc(CCN(C)C)c12 ... 84
Cc1cc2c(c3c(CCN)c[nH]c13)CCCO2 ... 91
Cc1cc(O)c2c(CCN(C)C)c[nH]c2c1 ... 88
CN(C)CCc1c[nH]c2c(CCO)ccc(O)c12 ... 81
COc1ccc(C)c2[nH]cc(CCN(C)C)c12 ... 68
Cc1cc(F)c(O)c2c(CCN(C)C)c[nH]c12 ... 64
